Source listed as the RNAGym collection of RNA variant scans (doi:10.1073/pnas.2313332121).

B1: TPR 5TU (parent)
chain: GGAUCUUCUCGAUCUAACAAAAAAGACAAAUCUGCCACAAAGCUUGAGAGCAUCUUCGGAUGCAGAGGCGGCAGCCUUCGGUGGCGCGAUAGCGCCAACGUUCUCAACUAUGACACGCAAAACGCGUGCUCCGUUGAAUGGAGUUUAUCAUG

variants of: B1; test: polymerase ribozyme fitness, log enrichment relative to wild type (log ratio); higher = more active; in vitro selection for triplet polymerase activity
Fewer inactive variants are shown than the library holds.
Readings of polymerase ribozyme fitness (log ratio) for the listed variants
Measurement Type: polymerase ribozyme fitness (log ratio)

1) G11A A16U A24U C85A A142C    ≤ -4.2
2) A40G C85G U111G U151C    ≤ -4.2
3) A17G G84A C93A A98G C129G    ≤ -4.2
4) A29G C87A A110C G141U    ≤ -4.2
5) G83C U101G A106U    -3.95
6) U53A G80C G143U    ≤ -4.2
7) A41G A49U G59U C85A C105U A106G A121U U134C    ≤ -4.2
8) A17G U53A C79A G141C    ≤ -4.2
9) A3C A97U U135G G140C    ≤ -4.2
10) A16C U144G    -0.499
11) A21U A26U C57U G84U    -3.6
12) C63U G68A    ≤ -4.2
13) C18G C38A C69G C87U G143U U145A    -3.47
14) G50C C51A    -0.896
15) A110G    -2.42
16) C54G G94A C108A C125U    ≤ -4.2
17) A12G U13G C38A A41U C95A U102C A137G    ≤ -4.2
18) C18U A37G U56A C87G C103U    ≤ -4.2
19) A17U A52U C57U C96U A98U C103G A121C G140C    ≤ -4.2
20) A40C A52G C79A C85U C99A A106G A142U G152U    ≤ -4.2
21) U6A G42C A49C A52C C75U C85U A91U    ≤ -4.2
22) C76G C87A U111A    ≤ -4.2
23) U4A U6A A28U A30G U44A G59C A60G C87U A89U A97C A107U    ≤ -4.2
24) C85U A89U A119C    -0.895
25) U31C C69U G86U C96U    -3.55
26) A21C C35A A39C G100C G136U    ≤ -4.2
27) C85G G141A C149G    ≤ -4.2
28) A37C G94U A98U    -1.16
29) A26C G86A U102A G128U C131G    ≤ -4.2
30) C93U C95U C131U    -0.998
31) G48A C57G A60G C63A C99G    ≤ -4.2
32) G67C G83A    ≤ -4.2
33) G46C A47G G71A C85U G88C    ≤ -4.2
34) A3U A47C C93U C118U    -2.05
35) A30C C38A C54U A60G G84U G141A G143A    ≤ -4.2
36) C76U G86U    -2.16
37) A113C U134C A137C G140A U148G    ≤ -4.2
38) A22C C35A U55A C57U G86U A119U    ≤ -4.2
39) C75G G86C C87U    ≤ -4.2
40) A24U U31A A37U G143C    ≤ -4.2
41) U53A U56A    -2.45
42) U45C U55A    -1.08
43) U45G C57U G70C C76A A91G C93A    ≤ -4.2
44) C93A U102C C105A C125G G143U U144A    ≤ -4.2
45) A24U C85U    -0.914
46) A37C    0.064
